system: c-Src; experiment: phosphorylation enrichment, bacterial display (enrichment ratio); higher = better substrate or ligand; peptides without Tyr show the background
Threshold check on phosphorylation enrichment: at or above 0.6 gives t, strictly below gives f.

Sample answers from the record:
>  <polymer.sequence>
ATYRGYDSDNP [MMUT_Y146_H143Y]

>  <qualitative.label>
t

$$$$
>  <polymer.sequence>
SNKLTYGTVVF [ACOX1_Y275_M278V]

>  <qualitative.label>
t

$$$$
>  <polymer.sequence>
ELCSEYHKSRK [SPINK5_Y440_R441H]

>  <qualitative.label>
t

$$$$
>  <polymer.sequence>
FSGDCYRIQGR [DDR2_Y741_Y740C_YF]

>  <qualitative.label>
f

$$$$
>  <polymer.sequence>
EFLRNYFTDKA [DSG2_Y775]

>  <qualitative.label>
f

$$$$

Reported phosphorylation enrichment at or above 0.6? EAEPYYCSLRD [NPHS1_Y1139_R1140C]
t

Answer whether phosphorylation enrichment of PFTRNYFVWAV [CYBA_Y87_R90W_YF] is greater than or equal to 0.6.
t

Dear colleague, could you confirm whether LFLALYTGLVH [PIGB_Y402] has phosphorylation enrichment at or above 0.6?
t

# check: phosphorylation enrichment of PQDVTYAQLHS [LILRB4_Y412] is greater than or equal to 0.6
t

Hello, I need to know if QLYGAYLRIHA [BSCL2_Y213] has measured phosphorylation enrichment not below 0.6. Thanks!
t

---

biological target: SHP2-C SH2; experiment: SH2 binding enrichment of the phosphorylated peptide, bacterial display (enrichment ratio); higher = better substrate or ligand; peptides without Tyr show the background;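 further: peptide library displayed on the E. coli surface as eCPX fusions, selected cells deep-sequenced, score is each peptide's frequency after selection divided by its frequency in the input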
quantity.measured: SH2 binding enrichment
Lab note: jot down the number only; don't add units.

>  <polymer.sequence>
FEDTLYTVLHR [UNC13D_Y61_A59T_YF]

>  <SH2 binding enrichment>
0.426

$$$$

What does the record list as SH2 binding enrichment for SCRENYSDSEE [LEMD3_Y258] ?
0.832

Param item = RALCHYFKLNI [ETV6_Y401_R399C_YF] ; retrieve measured SH2 binding enrichment.
2.22

Name the reported SH2 binding enrichment value associated with the sequence APGNAYGDAGY [SYP_Y250_D248N]
0.52

Using the record for AGREIYESEKC [TTN_Y4424_D4427E] , report its SH2 binding enrichment.
1.09

Item HPYNSYTYPRL [PAK5_Y316_S312P] has what recorded SH2 binding enrichment?
0.677

Fill in the blank: the reported SH2 binding enrichment of YVPSFYHAFSG [ACTN4_Y265_S262P] is ____.
0.673

I have this sequence here, QSKGIYFVQLE [MGAT4B_Y262_YF] , and I need its recorded SH2 binding enrichment.
0.854

SH2 binding enrichment for GIVTGYLVLKE [DNMT3B_Y588_A585V] ?
1.31

---

target: Fes (UniProt P07332); experiment: phosphorylation enrichment, bacterial display (enrichment ratio); higher = better substrate or ligand; peptides without Tyr show the background
Sequence (P07332 whole entry, looked up): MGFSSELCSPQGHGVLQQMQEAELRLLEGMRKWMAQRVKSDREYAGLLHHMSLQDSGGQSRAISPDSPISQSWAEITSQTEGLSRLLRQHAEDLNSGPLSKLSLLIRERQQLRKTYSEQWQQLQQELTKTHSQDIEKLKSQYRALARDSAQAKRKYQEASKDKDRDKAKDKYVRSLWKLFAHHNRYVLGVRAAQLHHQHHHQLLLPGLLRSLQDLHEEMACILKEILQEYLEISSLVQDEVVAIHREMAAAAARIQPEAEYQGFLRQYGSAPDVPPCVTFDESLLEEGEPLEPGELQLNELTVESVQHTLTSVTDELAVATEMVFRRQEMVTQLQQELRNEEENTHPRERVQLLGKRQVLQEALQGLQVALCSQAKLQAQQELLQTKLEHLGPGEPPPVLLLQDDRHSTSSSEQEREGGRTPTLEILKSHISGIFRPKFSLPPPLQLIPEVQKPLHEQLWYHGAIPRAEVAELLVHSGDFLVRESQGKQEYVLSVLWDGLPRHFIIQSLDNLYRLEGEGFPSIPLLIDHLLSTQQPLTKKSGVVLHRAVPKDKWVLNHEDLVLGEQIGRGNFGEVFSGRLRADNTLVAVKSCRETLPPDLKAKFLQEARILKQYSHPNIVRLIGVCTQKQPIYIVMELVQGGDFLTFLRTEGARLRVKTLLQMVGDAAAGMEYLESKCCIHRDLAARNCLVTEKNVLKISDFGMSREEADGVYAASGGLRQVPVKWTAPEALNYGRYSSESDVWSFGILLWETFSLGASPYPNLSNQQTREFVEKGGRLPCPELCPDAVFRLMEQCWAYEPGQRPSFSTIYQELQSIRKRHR
quantity.measured: phosphorylation enrichment
Answer as a number with no unit attached.

Please report the recorded phosphorylation enrichment for PEQAAYQKVVA [HBB_Y131_V127E] .
1.07

---

molecular target: Fyn (UniProt P06241); assay: phosphorylation enrichment, bacterial display (enrichment ratio); higher = better substrate or ligand; peptides without Tyr show the background
Sequence (P06241 whole entry, looked up): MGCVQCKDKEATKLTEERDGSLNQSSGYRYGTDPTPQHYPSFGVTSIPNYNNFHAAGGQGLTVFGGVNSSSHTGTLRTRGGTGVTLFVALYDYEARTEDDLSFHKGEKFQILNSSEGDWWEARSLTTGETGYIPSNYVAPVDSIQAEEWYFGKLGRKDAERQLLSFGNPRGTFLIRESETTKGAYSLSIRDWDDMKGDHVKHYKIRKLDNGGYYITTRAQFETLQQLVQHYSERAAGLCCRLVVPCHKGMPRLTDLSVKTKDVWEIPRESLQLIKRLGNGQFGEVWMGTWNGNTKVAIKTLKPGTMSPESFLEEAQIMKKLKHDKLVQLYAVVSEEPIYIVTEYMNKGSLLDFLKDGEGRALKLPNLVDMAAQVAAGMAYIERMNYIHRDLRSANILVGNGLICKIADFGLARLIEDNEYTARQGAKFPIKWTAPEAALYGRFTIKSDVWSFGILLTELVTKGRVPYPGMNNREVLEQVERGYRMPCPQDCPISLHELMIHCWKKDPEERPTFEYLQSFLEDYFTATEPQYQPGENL
Field: class. Source value: phosphorylation enrichment. Ranges: band A: < 0.5; band B: ≥ 0.5 and < 0.7; band C: ≥ 0.7

>  <polymer.sequence>
RLLVVYPWTRR [HBB_Y36_Q40R]

>  <qualitative.label>
band B

$$$$
>  <polymer.sequence>
LPHVIYCRLWR [SMAD2_Y128]

>  <qualitative.label>
band C

$$$$
>  <polymer.sequence>
YVPSFYHAFSG [ACTN4_Y265_S262P]

>  <qualitative.label>
band C

$$$$
>  <polymer.sequence>
AIYWRYSKFFD [SH3PXD2B_Y45_R43W]

>  <qualitative.label>
band C

$$$$
>  <polymer.sequence>
EEALHYLTRVE [SET_Y119]

>  <qualitative.label>
band A

$$$$
>  <polymer.sequence>
AGTILYHAHLG [ASS1_Y291_D296G]

>  <qualitative.label>
band B

$$$$
>  <polymer.sequence>
ASENVYVNIAH [CTSC_Y150]

>  <qualitative.label>
band C

$$$$
>  <polymer.sequence>
AGREIYESEKC [TTN_Y4424_D4427E]

>  <qualitative.label>
band B

$$$$
>  <polymer.sequence>
TENAGYFFQVS

>  <qualitative.label>
band A

$$$$
>  <polymer.sequence>
LQTYHYHGHSM [PDHA1_Y289_R288H]

>  <qualitative.label>
band B

$$$$

State the band of FEDTLYTVLHR [UNC13D_Y61_A59T_YF]
band C

Where would RLLRGYRQDAF [HLA-A_Y137_F133L_YF] land among the classes by reported phosphorylation enrichment?
band B

Dear colleague, I would appreciate it if you could identify the bin for PGVDIYVSPNM [PADI3_Y51_I52V] and reply at your convenience.
band C

---

system: Fer (mouse); assay: phosphorylation enrichment, bacterial display (enrichment ratio); higher = better substrate or ligand; peptides without Tyr show the background
Would you mind labelling by phosphorylation enrichment? At or over 0.5 is fulfilled, under is not fulfilled.

The examples below pair each entry with its known result.
>  <polymer.sequence>
CENNRYGMGTS [PDHA1_Y227]

>  <qualitative.label>
fulfilled

$$$$
>  <polymer.sequence>
NAPNSYGRRPT [CDKN2A_Y44_I49T]

>  <qualitative.label>
not fulfilled

$$$$
>  <polymer.sequence>
EFNLMYHGTKE [IRF6_Y97_D98H]

>  <qualitative.label>
not fulfilled

$$$$
>  <polymer.sequence>
GVRYTYTIDGS [DCX_Y105_I104T]

>  <qualitative.label>
not fulfilled

$$$$
>  <polymer.sequence>
ETKRPYTVILI [SBDS_Y128]

>  <qualitative.label>
fulfilled

$$$$

Evaluate VVSLFYGTALF [OR10C1_Y251_M246V] : phosphorylation enrichment at minimum 0.5?
fulfilled

Say whether HPYNSYTYPRL [PAK5_Y316_S312P] shows phosphorylation enrichment of 0.5 or more.
fulfilled

hey, is phosphorylation enrichment for this one >= 0.5? CSPLLYKVIMS [OR8D4_Y132_R133K]
fulfilled

Hi team, for PEIIAYQPFGK [PRKCG_Y529_YF] , is the recorded phosphorylation enrichment at or above 0.5?
fulfilled

Threshold query (phosphorylation enrichment >= 0.5) on QRCFVYFFSFL [PTEN_Y176_R173C_YF]
fulfilled

---

system: c-Abl (mouse); experiment: phosphorylation enrichment, bacterial display (enrichment ratio); higher = better substrate or ligand; peptides without Tyr show the background
quantity.measured: phosphorylation enrichment

Observe how each entry below is paired with its result.
>  <polymer.sequence>
EYQLPYYNTVP [BMPR1A_Y457_M460T]

>  <phosphorylation enrichment>
2.54

$$$$
>  <polymer.sequence>
LNERHYGALIG [BPGM_Y92]

>  <phosphorylation enrichment>
0.461

$$$$
>  <polymer.sequence>
DIRAQYDELAR [KRT18_Y256]

>  <phosphorylation enrichment>
0.766

$$$$
>  <polymer.sequence>
DPKFHYDNTAG [KDR_Y1214]

>  <phosphorylation enrichment>
0.497

$$$$
>  <polymer.sequence>
FLAVGYHKPRI [IDS_Y225_H229R]

>  <phosphorylation enrichment>
0.481

$$$$

Record NAPNSYGRRPT [CDKN2A_Y44_I49T] : what is its phosphorylation enrichment with c-Abl (mouse)?
0.79

Form entry - test system: c-Abl (mouse); read-out: phosphorylation enrichment; sequence: EWQQIYTFDSG [JUP_Y20_T19I_YF]
1.06

Give the reported phosphorylation enrichment for SLDLSYYTTSS [EMD_Y181_P183T] (system: c-Abl (mouse)).
0.976

Requested read-out phosphorylation enrichment, target or system c-Abl (mouse), entry FSPGSNERETF [NF1_Y2192_Y2192N]
0.599

---

test system: Fer (mouse); assay: phosphorylation enrichment, bacterial display (enrichment ratio); higher = better substrate or ligand; peptides without Tyr show the background
quantity.measured: phosphorylation enrichment
# print the numeric value only

Solved cases below.
>  <polymer.sequence>
FPLELYERVRM [PRKCG_Y312_YF]

>  <measured.target>
Fer (mouse)

>  <endpoint.value>
2.39

$$$$
>  <polymer.sequence>
KKFVPYYDLFM [IPO5_Y530_E525K]

>  <measured.target>
Fer (mouse)

>  <endpoint.value>
1.3

$$$$
>  <polymer.sequence>
VKANTYEKFWL [GATM_Y100_P105L_YF]

>  <measured.target>
Fer (mouse)

>  <endpoint.value>
2.9

$$$$
>  <polymer.sequence>
GMAHNYRNRSQ [AASS_Y188_S191R]

>  <measured.target>
Fer (mouse)

>  <endpoint.value>
0.358

$$$$
>  <polymer.sequence>
EEALFYLTRVE [SET_Y119_H118Y_YF]

>  <measured.target>
Fer (mouse)

>  <endpoint.value>
0.835

$$$$
>  <polymer.sequence>
DFDHSYFFIAT [ESD_Y262_G257D_YF]

>  <measured.target>
Fer (mouse)

>  <endpoint.value>
0.786

$$$$
>  <polymer.sequence>
MYVKSYTIHYS [F5_Y2153]

>  <measured.target>
Fer (mouse)

>  <endpoint.value>
0.508

$$$$
>  <polymer.sequence>
RHAASYSSDSE [REPS1_Y116]

>  <measured.target>
Fer (mouse)

>  <endpoint.value>
0.578

$$$$

Switching to the query record.
So what's the measured phosphorylation enrichment for this one? FLAATYPTLGQ [NF1_Y2508_V2511L_YF]
0.4
